Biological target: Type VI-S electric eel AChE (Electrophorus electricus, UniProt O42275)
Construct: purchased Sigma Type VI-S
Sequence (O42275 24-633): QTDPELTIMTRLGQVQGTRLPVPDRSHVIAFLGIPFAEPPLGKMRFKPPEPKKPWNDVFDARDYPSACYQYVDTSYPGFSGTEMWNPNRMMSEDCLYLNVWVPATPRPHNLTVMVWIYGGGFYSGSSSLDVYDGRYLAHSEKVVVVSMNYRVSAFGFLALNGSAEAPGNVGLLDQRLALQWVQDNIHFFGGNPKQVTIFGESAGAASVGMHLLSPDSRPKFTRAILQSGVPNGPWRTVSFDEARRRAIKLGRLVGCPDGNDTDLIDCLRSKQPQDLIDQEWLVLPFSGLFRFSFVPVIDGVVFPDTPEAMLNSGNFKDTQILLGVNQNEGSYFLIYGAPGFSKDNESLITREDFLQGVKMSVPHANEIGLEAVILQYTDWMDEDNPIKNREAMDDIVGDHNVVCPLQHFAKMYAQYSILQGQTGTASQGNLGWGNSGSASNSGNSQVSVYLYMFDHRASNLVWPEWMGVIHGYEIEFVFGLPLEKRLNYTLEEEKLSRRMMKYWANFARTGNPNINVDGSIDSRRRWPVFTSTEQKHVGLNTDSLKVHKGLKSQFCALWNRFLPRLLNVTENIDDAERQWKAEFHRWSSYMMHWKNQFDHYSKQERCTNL
Test: acetylcholinesterase (AChE) activity
Format: biochemical
pIC50: −log10 of the molar value.
observedProperty: pIC50

Value sought: pIC50, system Type VI-S electric eel AChE (Electrophorus electricus, UniProt O42275), item COC(C)(C)CCC/C(C)=C/CCSCC(=O)C(F)(F)F . Result: < 4.00

###

Measured IC50 accompanies every entry in the list below.
Target: Type VI-S electric eel AChE (Electrophorus electricus, UniProt O42275)
Construct: purchased Sigma Type VI-S
Assay: acetylcholinesterase (AChE) activity
Assay type: biochemical
Settings: acetylthiocholine iodide 5×10^-4 M, 37° C.; * = greater than; read-out: I50 (M) AChE
Record the value in M, omitting the unit from your answer.

>>> recordednumber("CC(C)=CCC/C(C)=C/CCSCC(=O)C(F)(F)F")
"6.2e-05"

Given item O=C(CSc1ccc(Br)cc1)C(F)(F)F , the value recorded as its IC50 is 2.4e-06

Given item CCCCCCCCCCCSCC(=O)C(F)(F)F , the value recorded as its IC50 is 2.6e-06

Given item CCCCCCCCSCC(=O)C(F)(F)F , the value recorded as its IC50 is 2.3e-06

Given item CCCCCCCCCCCCSCC(=O)C(F)(F)F , the value recorded as its IC50 is 2.2e-06

Given item Cc1ccc(SCC(=O)C(F)(F)F)cc1 , the value recorded as its IC50 is 6.1e-07

Given item Cc1ccccc1SCC(=O)C(F)(F)F , the value recorded as its IC50 is 3.7e-07

Given item CCCCCCCCCCSCC(=O)C(F)(F)F , the value recorded as its IC50 is 3.2e-06

Given item O=C(CSC1CCCCC1)C(F)(F)F , the value recorded as its IC50 is 1.8e-06

Given item CCCCCCCCCSCC(=O)C(F)(F)F , the value recorded as its IC50 is 9.3e-07

Given item CC(C)c1ccccc1SCC(=O)C(F)(F)F , the value recorded as its IC50 is 4.9e-08
